- system: mTOR Kinase (FLAG-TOR) (Homo sapiens)
- Construct: FLAG
- testName: mTOR kinase assay, purified enzyme, DELFIA format
- runParameters: 100 μM ATP, 1.25 μM His6-S6K; read-out: mTOR Kinase Median IC50
Record form. Attribute: log10 IC50. Fill in for each entry.
Scale: decimal log of IC50, IC50 in nM.

// field: log10 IC50; key: CN(C)CCOc1ccc(NC(=O)Nc2ccc(-c3nc(N4CCOCC4)c4ccn(CC(F)(F)F)c4n3)cc2)cc1 [Compound 58] ; value = 0.65

// field: log10 IC50; key: CC(C)n1ccc2c(N3CCOCC3)nc(-c3ccc(NC(=O)Nc4ccc(C(=O)N5CCC(N6CCCC6)CC5)cc4)cc3)nc21 [Compound 88] ; value = -0.23

// field: log10 IC50; key: CCn1ccc2c(N3CCOCC3)nc(-c3ccc(NC(=O)Nc4ccc(C(=O)NCCCN(C)C)cc4)cc3)nc21 [Compound 74] ; value = 0.08

// field: log10 IC50; key: Nc1nc2cc(-c3nc(N4CCOCC4)c4ccn(CC(F)(F)F)c4n3)ccc2[nH]1 [Compound 45] ; value = 1.56

// field: log10 IC50; key: CC(C)n1ccc2c(N3CCOCC3)nc(-c3ccc(NC(=O)Nc4ccc(C(=O)O)cc4)cc3)nc21 [Compound 90] ; value = -0.09

// field: log10 IC50; key: CC(C)n1ccc2c(N3CCOCC3)nc(-c3ccc(NC(=O)Nc4ccc(C(=O)N5CCC(N(C)C)CC5)cc4)cc3)nc21 [Compound 84] ; value = -0.10

// field: log10 IC50; key: CCn1ccc2c(N3CCOCC3)nc(-c3ccc(NC(=O)Nc4ccc(C(=O)N5CCSCC5)cc4)cc3)nc21 [Compound 71] ; value = 0.62

// field: log10 IC50; key: CN(C)CCn1cc(C(=O)Nc2cccnc2)c2c(N3CCOCC3)nc(-c3ccc(NC(=O)Nc4cccnc4)cc3)nc21 [Compound 10] ; value = -0.06

====

PI3Kγ (Homo sapiens) data, read-out IC50
Sequence (P48736 whole entry, species assumed): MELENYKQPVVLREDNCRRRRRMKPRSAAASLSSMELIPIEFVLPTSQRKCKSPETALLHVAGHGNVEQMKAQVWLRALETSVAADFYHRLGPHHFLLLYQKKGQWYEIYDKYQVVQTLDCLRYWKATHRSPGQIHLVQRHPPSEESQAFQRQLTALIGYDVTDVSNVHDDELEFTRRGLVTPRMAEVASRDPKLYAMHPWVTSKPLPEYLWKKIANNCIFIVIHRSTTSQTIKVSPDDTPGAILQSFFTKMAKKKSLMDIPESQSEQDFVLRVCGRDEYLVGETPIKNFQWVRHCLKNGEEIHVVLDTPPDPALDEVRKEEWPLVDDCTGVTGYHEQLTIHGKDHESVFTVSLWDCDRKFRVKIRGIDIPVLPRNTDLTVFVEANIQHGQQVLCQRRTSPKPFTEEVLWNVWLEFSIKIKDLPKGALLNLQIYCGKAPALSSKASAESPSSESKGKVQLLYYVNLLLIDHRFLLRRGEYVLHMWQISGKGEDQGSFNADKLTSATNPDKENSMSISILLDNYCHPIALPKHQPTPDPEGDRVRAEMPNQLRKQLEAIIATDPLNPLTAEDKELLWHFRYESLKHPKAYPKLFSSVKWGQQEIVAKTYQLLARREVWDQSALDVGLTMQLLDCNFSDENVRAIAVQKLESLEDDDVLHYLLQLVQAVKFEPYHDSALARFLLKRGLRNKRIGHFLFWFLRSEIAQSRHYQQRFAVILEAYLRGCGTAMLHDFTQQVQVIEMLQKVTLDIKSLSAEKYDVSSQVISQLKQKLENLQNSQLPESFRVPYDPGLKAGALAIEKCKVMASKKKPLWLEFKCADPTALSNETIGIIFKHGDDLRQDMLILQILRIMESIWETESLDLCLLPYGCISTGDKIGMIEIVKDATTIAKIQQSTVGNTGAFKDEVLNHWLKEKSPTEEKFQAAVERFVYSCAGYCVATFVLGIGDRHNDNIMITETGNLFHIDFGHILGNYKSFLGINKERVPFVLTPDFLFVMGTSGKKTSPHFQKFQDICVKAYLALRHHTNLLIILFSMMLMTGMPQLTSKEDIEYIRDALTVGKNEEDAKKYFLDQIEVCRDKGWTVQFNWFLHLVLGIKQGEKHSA
// units = nM; emit number, no label

// field: IC50; key: Oc1cccc(-c2nc(N3CCOCC3)c3cc[nH]c3n2)c1 ; value = 338

// field: IC50; key: O=C(Nc1ccc(-c2nc(N3CCOCC3)c3cc[nH]c3n2)cc1)Nc1cccnc1 ; value = 78

// field: IC50; key: O=C(Nc1ccc(CO)cc1)Nc1ccc(-c2nc(N3CCOCC3)c3ccn(CC(F)(F)F)c3n2)cc1 ; value = 80

// field: IC50; key: CN1CCN(C(=O)c2ccc(NC(=O)Nc3ccc(-c4nc(N5CCOCC5)c5ccn(CC(F)(F)F)c5n4)cc3)cc2)CC1 ; value = 16

// field: IC50; key: c1cc(-c2nc(N3CCOCC3)c3cc[nH]c3n2)c2cn[nH]c2c1 ; value = 10800

// field: IC50; key: CCN1CCN(C(=O)c2ccc(NC(=O)Nc3ccc(-c4nc(N5CCOCC5)c5ccn(C(C)C)c5n4)cc3)cc2)CC1 ; value = 72

// field: IC50; key: CCn1ccc2c(N3CCOCC3)nc(-c3ccc(NC(=O)Nc4ccc(C(=O)N5CCN(c6ccccn6)CC5)cc4)cc3)nc21 ; value = 36

// field: IC50; key: CCN1CCN(C(=O)c2ccc(NC(=O)Nc3ccc(-c4nc(N5CCOCC5)c5ccn(CC)c5n4)cc3)cc2)CC1 ; value = 21
